Test system: HIV-1p256
Test: microbe, parasite or virus in culture
Type: cell-based
Settings: Human immunodeficiency virus 1, HeLa37, 40 h, read-out: IC50 of inhibition of HIV in HeLa 37 cells
Protocol: Short-term, single hit infectivity studies were performed as previously described. HeLa37 cells were plated in a 48-well tray and triplicate wells were infected with a dual-tropic HIV-1p256 and serial dilutions of P-TEFb inhibitor for 40 hours. […] The HIV-1 antigen-positive cells were counted. […]
Answer each item with its documented IC50.
Numbers only, in nM.

{"compound": "OC[C@H]1O[C@@H](n2cnc3cc(Cl)c(Cl)cc32)[C@H](O)[C@@H]1O [DRB]", "testedTarget": "HIV-1p256", "unitAnnotation": "nM", "IC50": 2600}

**Query** Identify measured IC50 corresponding to CN1CC[C@H](c2c(O)cc(O)c3c(=O)cc(-c4ccccc4Cl)oc23)[C@H](O)C1 [Flavopiridol]
**Result** 9.5

* * *

molecular target: large form of P-TEFb (Homo sapiens); assay: Differential salt extraction, loss of large form of P-TEFb in HeLa cells; type: cell-based; details: read-out: IC50 for the release of free form of P-TEFb from the large form of the complex; HeLa37 cells, 1 hour treatment, low salt extraction
Sequence (P50750 whole entry): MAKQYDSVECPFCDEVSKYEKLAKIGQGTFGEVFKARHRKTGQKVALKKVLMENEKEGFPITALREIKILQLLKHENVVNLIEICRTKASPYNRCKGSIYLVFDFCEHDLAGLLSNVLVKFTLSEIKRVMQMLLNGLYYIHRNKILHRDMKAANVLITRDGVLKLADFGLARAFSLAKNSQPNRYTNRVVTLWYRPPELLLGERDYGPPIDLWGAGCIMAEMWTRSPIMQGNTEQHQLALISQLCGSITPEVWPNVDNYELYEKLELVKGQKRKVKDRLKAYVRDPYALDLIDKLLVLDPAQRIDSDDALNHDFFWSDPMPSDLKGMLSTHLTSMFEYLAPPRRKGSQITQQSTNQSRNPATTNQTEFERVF
Sequence (O60563 whole entry, further chain): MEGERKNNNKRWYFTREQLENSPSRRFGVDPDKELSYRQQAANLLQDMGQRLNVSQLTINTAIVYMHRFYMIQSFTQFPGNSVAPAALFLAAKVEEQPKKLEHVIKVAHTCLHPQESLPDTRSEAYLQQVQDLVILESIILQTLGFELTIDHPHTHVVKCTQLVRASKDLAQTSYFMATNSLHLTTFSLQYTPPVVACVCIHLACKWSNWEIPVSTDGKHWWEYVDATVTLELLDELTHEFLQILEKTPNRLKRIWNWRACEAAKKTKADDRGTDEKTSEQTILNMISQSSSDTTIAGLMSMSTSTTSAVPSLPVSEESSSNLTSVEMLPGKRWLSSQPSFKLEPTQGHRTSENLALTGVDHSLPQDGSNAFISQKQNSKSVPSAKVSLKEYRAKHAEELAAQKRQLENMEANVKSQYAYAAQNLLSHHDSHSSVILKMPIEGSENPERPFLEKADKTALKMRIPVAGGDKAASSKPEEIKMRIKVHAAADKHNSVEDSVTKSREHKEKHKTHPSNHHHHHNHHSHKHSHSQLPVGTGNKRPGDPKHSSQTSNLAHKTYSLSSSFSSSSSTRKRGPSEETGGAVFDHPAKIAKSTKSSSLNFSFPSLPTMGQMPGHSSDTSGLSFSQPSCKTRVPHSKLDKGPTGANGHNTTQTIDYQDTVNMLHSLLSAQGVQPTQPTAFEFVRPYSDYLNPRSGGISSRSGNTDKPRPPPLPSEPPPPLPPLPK
pIC50: −log10 of the molar value.
experimentalReadout: pIC50

**Query** Identify measured pIC50 corresponding to OC[C@H]1O[C@@H](n2cnc3cc(Cl)c(Cl)cc32)[C@H](O)[C@@H]1O
**Result** ~5.35

* * *

test system: HIV-1p256; test: Long-term HIV-1 replication in PBLs (RT activity in supernatants); type: cell-based; details: Human immunodeficiency virus 1, donor #3; average of days 4, 8, 12, 16; read-out: average IC50 for inhibition of viral replication in PBLs
experimentalReadout: IC50 (nM)
Numbers only, in nM.

**Query** Fill in: IC50 on HIV-1p256, entry CN1CC[C@H](c2c(O)cc(O)c3c(=O)cc(-c4ccccc4Cl)oc23)[C@H](O)C1
**Result** 61
